B1: library; a variant is named by its letters at N, in order (parent)
chain: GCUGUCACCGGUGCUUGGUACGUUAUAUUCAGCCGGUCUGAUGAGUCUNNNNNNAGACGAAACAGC

variants of: B1; test: normalized RNA/DNA level without ligand (relative to sTRSVctl = 100) (log10 (% of sTRSVctl)); HEK293T overexpressing SLC46A1; higher = less ribozyme self-cleavage, higher mRNA level; conditions: without (6R,S)-folinic acid; ligand present: no
Think of 2 as a floor: if normalized RNA/DNA level without ligand (log10) stands on it or above, it is met; beneath it, not met.

Here are 3 variants together with their reported answers.
UUCACU; met
UUUGUU; not met
GGGCGU; met

**Q:** Decide: normalized RNA/DNA level without ligand (log10) of UCGGGA >= 2?
**A:** not met
